- Target entity: Lysine-specific histone demethylase 1A (Homo sapiens, UniProt O60341)
- Assay details: Inhibition of human recombinant LSD1 expressed in Escherichia coli using H3K4me2 peptide as substrate incubated for 60 mins by AlphaLISA assay
Reported property: IC50

Consider the following illustrative entries.
Cn1ccc2cc(-c3ncc4c(ccn4CC4CCNCC4)c3-c3ccc(C#N)cc3)ccc21 :: 6.5 nM
Cn1cc(-c2ncc3c(ccn3CC3CCNCC3)c2-c2ccc(C#N)cc2)cn1 :: > 1000 nM
CN1CCOc2cc(-c3ncc4c(ccn4CC4(C)CCNCC4)c3-c3ccc(C#N)cc3)ccc21 :: 1.3 nM
Cn1ncc2cc(-c3ncc4c(ccn4CCCCN)c3-c3ccc(C#N)cc3)ccc21 :: 12.4 nM
Cn1ncc2cc(-c3ncc4[nH]ccc4c3-c3ccc(C#N)cc3)ccc21 :: 3710 nM
Cn1ncc2cc(-c3ncc4c(ccn4C[C@@H]4CCNC4)c3-c3ccc(C#N)c(F)c3)ccc21 :: 3.7 nM
Cc1ccc(-c2ncc3c(ccn3CC3CCNCC3)c2-c2ccc(C#N)cc2)cn1 :: 69.8 nM
Cc1cc(-c2c(-c3ccc4c(cnn4C)c3)ncc3c2ccn3CC2CCNCC2)ccc1C#N :: 156 nM
CC(C)(C)c1ccc(-c2ncc3c(ccn3CC3CCNCC3)c2-c2ccc(C#N)cc2)cc1 :: 47.9 nM
Cc1cc(C#N)ccc1-c1c(-c2ccc3c(cnn3C)c2)ncc2c1ccn2CC1CCNCC1 :: 215 nM

Query: Requested field: IC50. Item: COC(=O)Nc1ccc(-c2ncc3c(ccn3CC3CCNCC3)c2-c2ccc(C#N)cc2)cc1
Response: 53.8 nM

Query: Requested field: IC50. Item: Cc1ccc(-c2ncc3c(ccn3C[C@@H]3CCNC3)c2-c2ccc(C#N)cc2)cc1
Response: 80 nM

Query: Requested field: IC50. Item: C=C(C)c1ccc(-c2ncc3c(ccn3CC3CCNCC3)c2-c2ccc(C#N)cc2)cc1
Response: 58.5 nM

Query: Requested field: IC50. Item: N#Cc1ccc(-c2c(-c3ccc(N)cc3)ncc3c2ccn3CC2CCNCC2)cc1
Response: 354 nM
